Tested on: CCRIS mutagenicity, Ames/micronucleus/aberration tests
protocol_notes: CCRIS mutagenicity studies
test_conditions: Test System: AMES SALMONELLA TYPHIMURIUM; Strain/Indicator: TA1535; Metabolic Activation: RAT, LIVER, S-9, AROCLOR 1254 (10%); Method: PREINCUBATION
The source made the active and inactive calls. No rule for the calls is given here.
One label from this list, please: 1.0 (active), 0.0 (inactive)

Worked examples, 5 compounds total:
compound	class_label
[CH3][Hg+]	0.0
O=C1CCc2ccccc2O1	0.0
CC(=O)OCc1ccco1	0.0
O=[N+]([O-])c1ccccc1CCl	1.0
Nc1ccccn1	0.0

Just curious, what result did BrCC1CO1 (centres undefined) get here?
1.0

How did this test come out for `CC(=O)OCc1ccc2c(c1)OCO2` ?
0.0

Tell me the assay call for `O=c1[nH]cc(F)c(=O)[nH]1` please.
0.0

Test call for this compound, please: `CNc1ccc(O)cc1`
0.0

---

System: CCRIS mutagenicity, Ames/micronucleus/aberration tests
protocol_notes: CCRIS mutagenicity studies
test_conditions: Test System: AMES SALMONELLA TYPHIMURIUM; Strain/Indicator: TA2637; Metabolic Activation: NONE; Method: STANDARD PLATE
Activity calls are given as the source filed them. No rule for the calls is given here.
Outcome field: choose from y for active, n for inactive

ClCC(CCl)(CCl)CCl n

Each compound tested received a call. Report the one for `CC1(C)C[C@H]2C=C(C=O)[C@]34C[C@]3(C(=O)O[C@@H]4O)[C@H]2C1` .
y

Which outcome was entered for the compound `CC(=O)O[C@H]1[C@@]2(O)CC(C)(C)CC2=C(C=O)[C@@]2(C=O)C[C@@]12C` in this test?
n

---

System: CCRIS mutagenicity, Ames/micronucleus/aberration tests
protocol_notes: CCRIS mutagenicity studies
test_conditions: Test System: AMES SALMONELLA TYPHIMURIUM; Strain/Indicator: TA1535; Metabolic Activation: RAT, LIVER, S-9, AROCLOR 1254; Method: STANDARD PLATE
Activity calls are given as the source filed them. No rule for the calls is given here.
Form entry, call: pick from YES for active, NO for inactive

compound	class_label
COc1ccc(S(=O)(=O)n2ncc(Cl)c(Cl)c2=O)cc1	NO

Now take the following compound into account.
Please let me know the test result on file for `Cl/C=C\CCl` .
YES

---

Test system: CCRIS mutagenicity, Ames/micronucleus/aberration tests
protocol_notes: CCRIS mutagenicity studies
test_conditions: Test System: AMES SALMONELLA TYPHIMURIUM; Strain/Indicator: TA104; Metabolic Activation: NONE; Method: STANDARD PLATE
The source made the active and inactive calls. How the calls were made is not given here.
In this exercise, the only acceptable responses are Yes for active, No for inactive

Please review the following examples before continuing.
compound	class_label
CC1(C)[C@H](C=C(Cl)Cl)[C@H]1C(=O)OCc1cccc(Oc2ccccc2)c1	No
Nc1ccc([N+](=O)[O-])cc1N	Yes
CCC(=O)Nc1ccc(Cl)c(Cl)c1	No
O=C1NC(=O)C2CC=CCC12 (centres undefined)	No
ClCC1CO1 (centres undefined)	Yes
CN(C)CCCn1cc[n+](C)c1/C=N/O	No

Would you kindly look at the next entry?
Dear colleague, could you share the recorded outcome for CC1(C)CC(C(=O)NC(CO)C(O)CO)C(C)(C)N1[O] (centres undefined) when you have a moment?
No
